Parameter Ratio EC50: see the listing below.
tested on: HEK293; assay: Selectivity index, ratio of EC50 for agonist activity at mouse TRH-R1 expressed in HEK293 cells to EC50 for agonist activity at mouse TRH-R2 expressed in HEK293 cells; assay type: cell-based

// below: answered compounds
> print(dat)
                                   compound  meas.value
1  NC(=O)[C@@H]1CCCN1C(=O)[C@H](Cc1c[nH]cn1)NC(=O)[C@@H]1CCC(=O)N1 [PROTIRELIN]         1.9
2  Cc1cnc(C(=O)N[C@@H](Cc2nc(I)n(Cc3ccccc3)c2I)C(=O)N2CCC[C@H]2C(N)=O)cn1        14.8
3  NC(=O)[C@@H]1CCCN1C(=O)[C@H](Cc1nc(Br)[nH]c1Br)NC(=O)c1cnccn1        50.8
4  CCCc1nc(C[C@H](NC(=O)c2nccnc2N)C(=O)N2CCC[C@H]2C(N)=O)c[nH]1        10.5
5  NC(=O)[C@@H]1CCCN1C(=O)[C@H](Cc1nc(I)[nH]c1I)NC(=O)c1cnccn1        36.3

stdin: Which Ratio EC50 is listed for `CCCc1nc(C[C@H](NC(=O)c2cnc(C)cn2)C(=O)N2CCC[C@H]2C(N)=O)c[nH]1` ?
stdout: 1.1

stdin: And `NC(=O)[C@@H]1CCCN1C(=O)[C@H](Cc1nc[nH]c1Br)NC(=O)c1cnccn1` ?
stdout: 82.9

stdin: And `CCn1c(I)nc(C[C@H](NC(=O)c2cnccn2)C(=O)N2CCC[C@H]2C(N)=O)c1I` ?
stdout: 7.5
